# Test system: Renilla luciferase RNA
# Assay: Barcoded aptazyme variant library screen: un-cleaved Renilla luciferase RNA by barcode read counts, HEK293-T cells
# Format: cell-based
# Recorded conditions: un-cleaved Renilla luciferase RNA, HEK293-T cells cultured with 1 mM theophylline (ON) over without theophylline (OFF); barcode read counts, triplicate
Recorded metric: Fold change in RNA expression between the ON state and the OFF state (fold)

Molecule: RA066 (nucleic acid, expressed or natural sequence) DNA: GCGCGTCCTGGATTCGCGGAAAGAATACCAGCATCGTCTTGATGCCCTTGGAAGTCTACGCGTACATCCAGCTGACGAGTCCCAAATAGGACGAAACGCGC
Reported measurement: 1.9

Molecule: RA100 (nucleic acid, expressed or natural sequence) DNA: GCGCGTCCTGGATTCGCGGAAACGCGTACATCCAGCTGACCGGAATACCAGCATCGTCTTGATGCCCTTGGAAGTCCGGAGTCCCAAATAGGACGAAACGCGC
Reported measurement: 1.6

Molecule: RA289 (nucleic acid, expressed or natural sequence) DNA: GCGCGTCCTGGATTCGCGGAAACGCGTACATCCAGGAATACCAGCATCGTCTTGATGCCCTTGGAAGTCCGCTGACGAGTCCCAAATAGGACGAAACGCGC
Reported measurement: 1.0

Molecule: RA161 (nucleic acid, expressed or natural sequence) DNA: GCGCGTCCTGGATTCGCGGAAACGCGTACATCCAGCTGACGAGTCCCAAATAGGACCCGGAATACCAGCATCGTCTTGATGCCCTTGGAAGTCCGGGAAACGCGC
Reported measurement: 1.3

Molecule: RA236 (nucleic acid, expressed or natural sequence) DNA: GCGCGTCCTGGATTCGCGGAAACGCGTACACCGGAATACCAGCATCGTCTTGATGCCCTTGGAAGTCCGGTCCAGCTGACGAGTCCCAAATAGGACGAAACGCGC
Reported measurement: 1.1
